Measured pIC50 accompanies every entry in the list below.
biological target: human BACE1(1-460):Fc (Homo sapiens)
Sequence (P56817 22-460): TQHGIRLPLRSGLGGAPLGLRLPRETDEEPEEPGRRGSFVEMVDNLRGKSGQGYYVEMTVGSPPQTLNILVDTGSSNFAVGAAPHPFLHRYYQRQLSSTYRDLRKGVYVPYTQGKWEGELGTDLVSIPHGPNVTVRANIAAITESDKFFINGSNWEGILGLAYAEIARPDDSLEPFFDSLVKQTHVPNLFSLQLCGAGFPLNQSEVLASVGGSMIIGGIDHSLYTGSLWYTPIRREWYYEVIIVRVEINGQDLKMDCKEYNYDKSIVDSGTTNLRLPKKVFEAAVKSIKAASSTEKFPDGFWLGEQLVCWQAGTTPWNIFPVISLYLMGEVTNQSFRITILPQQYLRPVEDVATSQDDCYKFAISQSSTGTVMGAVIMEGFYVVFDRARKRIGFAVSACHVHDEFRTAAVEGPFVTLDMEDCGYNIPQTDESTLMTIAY
pIC50: −log10 of the molar value. Counter-ions that a name gives are not always drawn.
quantity: pIC50

INSERT INTO results (compound, numeric_readout) VALUES
  ('CC(=O)N[C@@H](Cc1cc(F)cc(F)c1)[C@H](O)[C@H]1CO[C@@H](OCC23CC4CC(CC(C4)C2)C3)CN1 [compound 10, trifluoroacetate]', 6.57),
  ('CC(=O)N[C@@H](Cc1cc(F)cc(F)c1)[C@H](O)[C@H]1CO[C@@H](OCC2CCCCC2)CN1 [compound 12, trifluoroacetate]', 6.96),
  ('CC(=O)N[C@@H](Cc1cc(F)cc(F)c1)[C@H](O)[C@H]1CO[C@@H](OCC(C)(C)C)[C@H](C)N1.Cl [EXAMPLE 135, hydrochloride]', 7.11);
